# assay_notes: Toxicity liver stage against HepG2, at 10uM
# Type: cell-based
# Parameters: test concentration 10 uM, cell line HepG2-A16-CD81EGFP
# condition_set: human, HepG2-A16-CD81EGFP cells; read-out: INHIBITION

molecule | cytotoxicity at 10 µM [%]
CC1c2ncc(COc3cccnc3)n2CCN1C(=O)Cc1ccco1 (centres undefined) | -5.13
NC(=O)C1(CCCc2ccccn2)CCCN(CCO)C1 (centres undefined) | 3.38
CCC(C)C(=O)N(CC(=O)OC)c1cccc(C)n1 (centres undefined) | -4.31
COCCN1CCCN(C(=O)c2scnc2C)CC1 | 5.27

----------
# assay_notes: Toxicity liver stage against HepG2, at 10uM
# Type: cell-based
# Set-up: test concentration 10 uM, cell line HepG2-A16-CD81EGFP
# condition_set: human, HepG2-A16-CD81EGFP cells; read-out: INHIBITION

compound | units | cytotoxicity at 10 µM
COc1ccc(C(=O)Nc2ccccc2-c2ccc(=O)n(C)n2)cc1 | % | 2.11
CC(C)CCNc1nnc(C(C)C)s1 | % | -10.6
CC(C)N1CC(n2ccnc2-c2nccn2C)CC1=O (stereo unspecified) | % | -0.371
Cn1cc(C(=O)NCCC(=O)N2CCCCC2)c(-c2cccnc2)n1 | % | -5.93
CC(C)NC(=O)COc1nc(C(C)(C)C)no1 | % | -7.48
O=C(CCc1nc(-c2cccnc2)no1)N(CC1CCOC1)C1CC1 (stereo unspecified) | % | 10.8

----------
# assay_notes: Toxicity liver stage against HepG2, at 10uM
# Type: cell-based
# Design: test concentration 10 uM, cell line HepG2-A16-CD81EGFP
# condition_set: human, HepG2-A16-CD81EGFP cells; read-out: INHIBITION

molecule | cytotoxicity at 10 µM (%)
O=C(CC1CC1)N[C@@H]1CN(Cc2ccco2)C[C@@H]2CCCO[C@@H]21 | -1.63
Cc1cccc(CSc2nnc(C)n2CC(N)=O)c1 | -4.46
OCC(O)CSCc1nnc(-c2ccc(Cl)cc2)o1 (configuration not stated) | 10.8
Cc1nn(C)c2ncc(NC(=O)N(C)Cc3cnn(C)c3)cc12 | -0.768
CCCn1cc(NC(=O)c2cccc(CN3CC=CC3)c2)nn1 | -147
COCCN(Cc1ccccn1)C(=O)CC1OCCc2ccsc21 (configuration not stated) | -39
CCNC(=O)N(Cc1ccoc1)C1CCCCC1 | -0.986
COc1ccc(-c2noc(C3CC(C(C)C)=NO3)n2)cc1 (configuration not stated) | -6.64
CN1CCN(C(CNC(=O)c2ccc(Cl)cc2F)c2cccs2)CC1 (configuration not stated) | 84.6
COc1ccc(-c2c[nH]c([C@@H]3COCCN3)n2)cc1 | -4.84
CCc1cnc(CN(C)C2CCN(c3sccc3C#N)C2=O)s1 (configuration not stated) | 8.32
CCc1ccc(CN2CCC3(CC2)CNC(=O)CO3)o1 | -16.5
CN1CCO[C@@H]2CN(S(=O)(=O)c3ccc(F)cc3)CC[C@@H]2C1 | 2.56
CN(CC1CCCCO1)c1nc2c(cc1C(N)=O)CCC2 (configuration not stated) | -5.64
Cc1nc(C)c(-c2nnc(SCC(=O)O)n2C(C)c2ccccc2)o1 (configuration not stated) | 4.64
COC(=O)NCC(=O)N1CCc2cc(Cl)cc(Cl)c2C1 | 0.598
O=C(NC[C@H]1OC[C@@H](NC2COC2)[C@@H]1O)c1ccccc1 | -1.05
